# experiment notes: Metabolic stability in Wistar rat plasma assessed as compound remaining at 3 uM after 120 mins by LC-MS/MS analysis relative to control
# Assay type: ADME, cell-free
# test context: read-out: Stability
recorded metric: remaining at 2 h, 3 µM (%)
Please give a number only; it is taken to be in %.

given smiles	unit spec	remaining at 2 h, 3 µM
O=c1c(O)c(-c2cc(O)c(O)c(O)c2)oc2cc(O)cc(O)c12	%	1.23

Q: Fill in the blank: the reported remaining at 2 h, 3 µM of `O=c1c(O[C@@H]2O[C@H](CO)[C@@H](O[C@@H]3O[C@H](CO)[C@H](O)[C@H](O)[C@H]3O)[C@H](O)[C@H]2O)c(-c2cc(O)c(O)c(O)c2)oc2cc([O-])cc(O)c12.[Na+]` is ____.
Ans: 55
